We begin with a simple list: items and their reported pIC50.
Biological target: full-length beta-Catenin (Uniprot ID P35222) (Homo sapiens, UniProt P35222)
Construct: 10 nM full-length beta-Catenin (Uniprot ID P35222)
Sequence (P35222 1-781): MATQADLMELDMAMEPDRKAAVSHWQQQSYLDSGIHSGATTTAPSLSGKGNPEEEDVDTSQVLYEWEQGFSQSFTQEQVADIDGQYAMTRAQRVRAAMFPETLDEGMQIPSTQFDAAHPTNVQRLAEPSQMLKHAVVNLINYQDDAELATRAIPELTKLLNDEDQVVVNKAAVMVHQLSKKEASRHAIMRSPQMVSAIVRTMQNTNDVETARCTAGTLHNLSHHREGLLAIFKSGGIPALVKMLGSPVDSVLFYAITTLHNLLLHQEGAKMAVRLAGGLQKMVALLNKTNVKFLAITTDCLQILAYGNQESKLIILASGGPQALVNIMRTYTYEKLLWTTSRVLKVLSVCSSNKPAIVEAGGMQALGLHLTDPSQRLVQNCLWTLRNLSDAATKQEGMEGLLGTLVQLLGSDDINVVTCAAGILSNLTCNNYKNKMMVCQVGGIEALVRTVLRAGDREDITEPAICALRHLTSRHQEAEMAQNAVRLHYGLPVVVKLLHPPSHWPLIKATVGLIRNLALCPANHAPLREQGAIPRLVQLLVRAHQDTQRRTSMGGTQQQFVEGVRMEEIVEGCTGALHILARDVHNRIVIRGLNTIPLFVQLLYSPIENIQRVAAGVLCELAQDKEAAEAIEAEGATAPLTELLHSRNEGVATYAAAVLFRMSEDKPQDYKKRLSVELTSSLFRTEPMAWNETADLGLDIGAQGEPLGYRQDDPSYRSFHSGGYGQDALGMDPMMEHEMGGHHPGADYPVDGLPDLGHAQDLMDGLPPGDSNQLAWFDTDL
Assay: Fluorescence polarization IC50 (beta-catenin / 5FAM-TCF4 10-53 competition)
Assay type: binding
Conditions: read-out: beta-Catenin FP IC50
Please note pIC50 is a logarithmic value: minus log10 of concentration in mol/L. Answer with that number alone.

Example cases with answers are listed next.
compound: CC(=O)N1CCC[C@]12CC=CCCCC1(CCCC=CCCCOC(=O)N3CC[C@@](C(=O)N[C@@H](Cc4ccsc4)C(=O)N[C@@H](Cc4csc5ccccc45)C(=O)N[C@@H](CC(N)=O)C(=O)N[C@H](C)C(N)=O)(C3)NC(=O)[C@H](CC(N)=O)NC(=O)[C@H](Cc3ccccc3)NC(=O)[C@H](C)NC(=O)[C@H](C)NC(=O)[C@H](CC(=O)O)NC(=O)[C@H](CC(=O)O)NC1=O)NC(=O)[C@H](CC(C)(C)C)NC(=O)[C@H](CC(=O)O)NC2=O (stereo partly drawn) [I-824]
property: pIC50
recordedResult: 8.15

compound: CC(=O)N1CCC[C@]12CC=CCCCC1(CCCC=CCCCOC(=O)N3CC[C@@](C(=O)N[C@@H](Cc4ccccc4)C(=O)N[C@@H](Cc4csc5ccccc45)C(=O)N[C@@H](CCC(N)=O)C(N)=O)(C3)NC(=O)[C@H](Cc3ccccc3)NC(=O)[C@H](Cc3ccccc3)NC(=O)[C@H](C)NC(=O)[C@H](C)NC(=O)[C@H](CN(CC(=O)O)CC(F)(F)F)NC(=O)[C@H](CC(=O)O)NC1=O)NC(=O)[C@H](CC(C)(C)C)NC(=O)[C@H](CC(=O)O)NC2=O (stereo partly drawn) [I-988]
property: pIC50
recordedResult: 8.30

Moving on to the next compound.
Field request: pIC50 | item: CC(=O)N1CCC[C@]12CC=CCCCC1(CCCC=CCCCOC(=O)N3CC[C@@](C(=O)N[C@@H](Cc4ccsc4)C(=O)N[C@@H](Cc4ccc5ccccc5c4)C(=O)N[C@@H](Cc4c[nH]cn4)C(N)=O)(C3)NC(=O)[C@H](CC(N)=O)NC(=O)[C@H](Cc3ccccc3)NC(=O)[C@H](C)NC(=O)[C@H](C)NC(=O)[C@H](CC(=O)O)NC(=O)[C@H](CC(=O)O)NC1=O)NC(=O)[C@H](CC(C)(C)C)NC(=O)[C@H](CC(=O)O)NC2=O (stereo partly drawn) [I-790]
7.62

----------
Biological target: beta-catenin/TCF4 engagement (Homo sapiens)
Construct: expressed in transfected cells; host or cells: HEK293
Sequence (P35222 1-781): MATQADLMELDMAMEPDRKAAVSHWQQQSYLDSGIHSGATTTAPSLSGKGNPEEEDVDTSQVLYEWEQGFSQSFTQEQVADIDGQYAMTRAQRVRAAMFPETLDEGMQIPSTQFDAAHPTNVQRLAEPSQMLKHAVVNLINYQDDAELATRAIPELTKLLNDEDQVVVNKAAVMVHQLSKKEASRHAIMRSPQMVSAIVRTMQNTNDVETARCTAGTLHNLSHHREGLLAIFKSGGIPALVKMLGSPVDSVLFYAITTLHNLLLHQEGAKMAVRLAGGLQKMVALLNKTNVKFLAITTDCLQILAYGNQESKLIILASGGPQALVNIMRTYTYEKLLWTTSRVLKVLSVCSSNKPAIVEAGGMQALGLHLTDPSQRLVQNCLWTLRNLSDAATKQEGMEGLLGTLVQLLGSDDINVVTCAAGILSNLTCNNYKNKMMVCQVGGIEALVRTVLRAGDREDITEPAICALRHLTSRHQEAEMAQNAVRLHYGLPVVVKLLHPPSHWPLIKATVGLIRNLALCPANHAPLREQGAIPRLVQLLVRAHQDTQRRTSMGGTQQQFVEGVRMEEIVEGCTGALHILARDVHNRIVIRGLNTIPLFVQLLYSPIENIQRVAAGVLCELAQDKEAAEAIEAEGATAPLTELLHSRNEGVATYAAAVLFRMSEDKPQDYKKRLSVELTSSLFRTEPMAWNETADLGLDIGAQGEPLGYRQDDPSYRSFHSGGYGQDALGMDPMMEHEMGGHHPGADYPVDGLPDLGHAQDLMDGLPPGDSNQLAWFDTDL
Test: Nano-BRET target engagement assay (B-cat-Halo & TCF4-Luc in HEK293 cells)
Type: cell-based
Details: read-out: NanoBRET Abs IC50
IC50 reference
Reply with just the number (in µM).

A selection of reference data follows.
compound: CC(=O)N1CCC[C@]12CC=CCCCC1(CCCC=CCCCOC(=O)N3CCC(C(=O)N[C@@H](Cc4ccsc4)C(=O)N[C@@H](Cc4csc5ccccc45)C(=O)N[C@@H](CCC(N)=O)C(N)=O)(CC3)NC(=O)[C@H](CC(C)C)NC(=O)[C@H](Cc3ccccc3)NC(=O)[C@H](C)NC(=O)[C@H](C)NC(=O)[C@H](Cc3cccc(C(=O)O)c3)NC(=O)[C@H](CC(=O)O)NC1=O)NC(=O)[C@H](CC(C)(C)C)NC(=O)[C@H](CC(=O)O)NC2=O (stereo partly drawn)
IC50 [µM]: 15.2

compound: CC(=O)N1CCC[C@]12CC=CCCCC1(CCCC=CCCCOC(=O)N3CC[C@@](C(=O)N[C@@H](Cc4ccsc4)C(=O)N[C@@H](Cc4csc5ccccc45)C(=O)N[C@@H](Cc4ccccc4)C(N)=O)(C3)NC(=O)[C@H](CC(C)C)NC(=O)[C@H](Cc3ccccc3)NC(=O)[C@H](C)NC(=O)C(C)(C)NC(=O)[C@H](Cc3cccc(C(=O)O)c3)NC(=O)[C@H](CC(=O)O)NC1=O)NC(=O)[C@H](CC(C)(C)C)NC(=O)[C@H](CC(=O)O)NC2=O (stereo partly drawn)
IC50 [µM]: 6.4

# input compound: CC(=O)N1CCC[C@]12CC=CCCCC1(CCCC=CCCCOC(=O)N3CC[C@@](C(=O)N[C@@H](Cc4ccccc4Cl)C(=O)N[C@@H](Cc4csc5ccccc45)C(=O)N[C@@H](CC(N)=O)C(N)=O)(C3)NC(=O)[C@H](Cc3ccccc3)NC(=O)[C@H](Cc3ccccc3)NC(=O)[C@H](C)NC(=O)[C@H](C)NC(=O)[C@H](Cc3cccc(C(=O)O)c3)NC(=O)[C@H](CC(=O)O)NC1=O)NC(=O)[C@H](CC(C)(C)C)NC(=O)[C@H](CC(=O)O)NC2=O (stereo partly drawn) ; wanted: its IC50
5

Query: IC50; subject: CC(=O)N1CCC[C@]12CC=CCCCC1(CCCC=CCCCOC(=O)N3CC[C@@](C(=O)N[C@@H](Cc4ccsc4)C(=O)N[C@@H](Cc4csc5ccccc45)C(=O)N[C@@H](CCC(N)=O)C(N)=O)(C3)NC(=O)[C@H](CC(N)=O)NC(=O)[C@H](Cc3ccccc3)NC(=O)[C@H](C)NC(=O)[C@H](C)NC(=O)[C@H](Cc3c[nH]cn3)NC(=O)[C@H](CC(=O)O)NC1=O)NC(=O)[C@H](CC(C)(C)C)NC(=O)[C@H](CC(=O)O)NC2=O (stereo partly drawn)
40

Given the compound CC(=O)N1CCC[C@]12CC=CCCCC1(CCCC=CCCCOC(=O)N3CC[C@@](C(=O)N[C@@H](Cc4ccsc4)C(=O)N[C@@H](Cc4csc5ccccc45)C(=O)N[C@@H](CCC(N)=O)C(N)=O)(C3)NC(=O)[C@H](CC(C)C)NC(=O)[C@H](Cc3cccc(C(=O)O)c3)NC(=O)[C@H](C)NC(=O)[C@H](C)NC(=O)[C@H](Cc3c[nH]cn3)NC(=O)[C@H](CC(=O)O)NC1=O)NC(=O)[C@H](CC(C)(C)C)NC(=O)[C@H](CC(=O)O)NC2=O (stereo partly drawn) [I-2122] , what is its reported IC50?
34.4

Quick one: IC50 for CC(=O)N1CCC[C@]12CC=CCCCC1(CCCC=CCCCOC(=O)N3CC[C@@](C(=O)N[C@@H](Cc4ccsc4)C(=O)N[C@@H](Cc4csc5ccccc45)C(=O)N[C@@H](CCC(N)=O)C(N)=O)(C3)NC(=O)[C@H](CC(C)C)NC(=O)[C@H](Cc3ccccc3)NC(=O)[C@H](C)NC(=O)[C@H](C)NC(=O)[C@H](CC(N)=O)NC(=O)[C@H](CC(=O)O)NC1=O)NC(=O)[C@H](CC(C)(C)C)NC(=O)[C@H](CC(=O)O)NC2=O (stereo partly drawn) ?
6.8

Could you share which IC50 value was measured for CC(=O)N1CCC[C@]12CC=CCCCC1(CCCC=CCCCCOC(=O)N3CC[C@@](C(=O)N[C@@H](Cc4ccsc4)C(=O)N[C@@H](Cc4csc5ccccc45)C(=O)N[C@@H](CC(N)=O)C(=O)N[C@H](C)C(N)=O)(C3)NC(=O)[C@H](CC(N)=O)NC(=O)[C@H](Cc3ccccc3)NC(=O)[C@H](C)NC(=O)[C@H](C)NC(=O)[C@H](CC(=O)O)NC(=O)[C@H](CC(=O)O)NC1=O)NC(=O)[C@H](CC(C)(C)C)NC(=O)[C@H](CC(=O)O)NC2=O (stereo partly drawn) [I-834] ?
33.7
